ASSAY_METHOD_TEXT: Tmax in Swiss Webster mouse at 25 mg/kg, po administered as single dose by LC-MS/MS method
Format: ADME, organism-based
Design: dose 25 mg/kg, route oral
MEASUREMENT_CONTEXT: in vivo
READOUT: Tmax (h)

Which Tmax value is on record for Cc1ccc(Cl)cc1N1CCN(c2ccc(C(=O)N[C@H](Cc3c[nH]c4ccccc34)C(=O)Nc3ccncc3)c(F)c2)CC1 ?
3.33

Also need O=C(N[C@H](Cc1c[nH]c2ccccc12)C(=O)Nc1ccncc1)c1ccc(N2CCN(c3cc(Cl)cc(Cl)c3)CC2)cc1F , thanks.
4.67

---

ASSAY_METHOD_TEXT: AUClast in Swiss Webster mouse at 25 mg/kg, po administered as single dose by LC-MS/MS method
Type: ADME, organism-based
Parameters: dose 25 mg/kg, route oral, time 0 - last
MEASUREMENT_CONTEXT: plasma
READOUT: AUC(0-t) (µM·h)

Which AUC(0-t) value is on record for Cc1ccc(Cl)cc1N1CCN(c2ccc(C(=O)N[C@H](Cc3c[nH]c4ccccc34)C(=O)Nc3ccncc3)c(F)c2)CC1 ?
19

Also need O=C(N[C@H](Cc1c[nH]c2ccccc12)C(=O)Nc1ccncc1)c1ccc(N2CCN(c3cc(Cl)cc(Cl)c3)CC2)cc1F , thanks.
22.5
